System: blackgrass
Assay: Test B pre/postemergence blackgrass
Assay type: in vivo, Alopecurus myosuroides
Settings: Postemergence, Rate 125 g/ha; scale 0 to 10, 0 is no effect, 10 is complete control
Measured Plant response rating, Blackgrass, listed per entry for reference.
assay-endpoint: Plant response rating, Blackgrass

CC(C)N(C(=O)n1oc(=O)n(C2(C)CC2)c1=O)c1ccc(F)cc1F	7
CC1CC1n1c(=O)on(C(=O)N(c2ccc(F)cc2F)C(C)C)c1=O (stereo not shown)	4
CC(C)N(C(=O)n1oc(=O)n(C2CC3CCC2C3)c1=O)c1ccc(F)cc1 (stereo not shown)	0
CCOC(=O)C(C)N(C(=O)n1oc(=O)n(C)c1=O)c1ccc(F)cc1 (stereo not shown)	0
CC(C)N(C(=O)n1oc(=O)n(N2C(C)CCCC2C)c1=O)c1ccc(F)cc1F (stereo not shown)	0
CC1CC1n1c(=O)on(C(=O)N(c2ccccc2)C(C)C)c1=O (stereo not shown)	4
CC(C)N(C(=O)n1oc(=O)n(C)c1=O)c1ccc(F)cc1F	7
